Where these numbers come from: FireProtDB (doi:10.1111/febs.13659)

B1: Cytosolic beta-glucosidase, O61594 (parent)
chain: MKLLVVLSLVAVACNASIVRQQRRFPDDFLFGTATASYQIEGAWDEDGKGENIWDYMVHNTPEVIRDLSNGDIAADSYHNYKRDVEMMRELGLDAYRFSLSWARILPTGMANEVNPAGIAFYNNYIDEMLKYNITPLITLYHWDLPQKLQELGGFANPLISDWFEDYARVVFENFGDRVKMFITFNEPREICFEGYGSATKAPILNATAMGAYLCAKNLVTAHAKAYYLYDREFRPVQGGQCGITISVNWFGPATPTPEDEMAAELRRQGEWGIYAHPIFSAEGGFPKELSDKIAEKSAQQGYPWSRLPEFTEEEKAFVRGTSDLIGVNHYTAFLVSATERKGPYPVPSLLDDVDTGSWADDSWLKSASAWLTLAPNSIHTALTHLNNLYNKPVFYITENGWSTDESRENSLIDDDRIQYYRASMESLLNCLDDGINLKGYMAWSLMDNFEWMEGYIERFGLYEVDFSDPARTRTPRKAAFVYKHIIKHRVVDYEYEPETMVMTIDEGH

# Variants of: B1
# Condition notes: Spodoptera frugiperda; pH 6; Thermal; CD; Potassium phosphate 10mM; transition: 2; structure 5CG0; whole UniProt chain shown
Catalogue of variants with associated unfolding enthalpy (calorimetric)

Variant description	Readout unit	unfolding enthalpy (calorimetric)
F251A	kcal/mol	52.3
F334A	kcal/mol	72.5
K366A	kcal/mol	74.6
M262F	kcal/mol	91.7
A263F	kcal/mol	44.2
L389A	kcal/mol	81.1
L335A	kcal/mol	55.2
N249A	kcal/mol	48.2
E265A	kcal/mol	51.1
Y390A	kcal/mol	72.5
V336F	kcal/mol	51.6
L350A	kcal/mol	61.4
Y420A	kcal/mol	47.8
L100A	kcal/mol	53
